Recorded values, source the supplement of paper PMC9233669.

tested on: biotinyl-Val-oxazolone; assay: self-aminoacylation, catalytic enhancement (BVO) (fold over background); higher = more active; k-Seq, kA / k0A0; sequences stand for … in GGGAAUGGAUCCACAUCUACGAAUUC…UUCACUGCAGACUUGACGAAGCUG
Variants at the floor of the assay were thinned out.
property label: self-aminoacylation

CCACGCUUCAAGCAGUCGGUC [Fam1B.1 aminoacylation ribozyme variant]    1.33
AUUCACCUAGGCCGUCGGGUG [Fam2.2 aminoacylation ribozyme variant]    2.3
AAGUUUGCUACUUGUCGCAAG [Fam3.1 aminoacylation ribozyme variant]    1.12
AUUCAACUAGGUCAUCGGGAG [Fam2.2 aminoacylation ribozyme variant]    0.961
CUACUUCAAACAACCGUUCUG [Fam1A.1 aminoacylation ribozyme variant]    0.676

Query: Form: Entry = CCACACUUCAAGCAAGCGGAC [Fam1B.1 aminoacylation ribozyme variant] | System = biotinyl-Val-oxazolone | self-aminoacylation = ____
Response: 1.15

Query: self-aminoacylation of AUUACCGUUGUCAUCGAGUGA [Fam2.1 aminoacylation ribozyme variant] on biotinyl-Val-oxazolone?
Response: 4.16

Query: // fetch biotinyl-Val-oxazolone self-aminoacylation for CCACACUUCGAGCAAUCGAUC [Fam1B.1 aminoacylation ribozyme variant]
Response: 0.481
